test system: Winterweizens Sorte Mironovskaya 808; test: Field trial of gametocidal activity (anther sterilisation), winter wheat; format: in vivo, Weizen; conditions: 2% aqueous emulsion, 20 kg/ha, control = 100, read-out: Prozentsatz des Ansetzens bei freier Bestäubung
test.readout: response vs control in vivo at 20000 g/ha (%)
Lab book: enter the figure in %, no units written.

The following compounds have reported results that may help.
>>> readout_value("ClCC1CO1 (stereo not drawn) [Beispiel II, 3-Chlor-1,2-epoxypropan]")
77.5
>>> readout_value("OCCOc1ccc(F)cc1 [Beispiel 2]")
67.7
>>> readout_value("OCC(O)COc1ccc(F)cc1 (stereo not drawn) [Beispiel 4]")
75.4
>>> readout_value("OCC(O)CSc1cccc(Cl)c1 (stereo not drawn) [Beispiel 8, 3-(3'-Chlorphenylthio)-propandiol-1,2]")
80.7
>>> readout_value("O=C(O)c1ccccc1F [Beispiel I4]")
89.3
>>> readout_value("CC(C)OC(=S)S [Beispiel 5, Kaliumisopropylxanthogenat]")
86.2
>>> readout_value("OCC(O)CSc1ccc(F)cc1 (stereo not drawn) [Beispiel I3]")
94.3
>>> readout_value("O=[N+]([O-])c1ccc(OCC(O)CO)cc1 (stereo not drawn) [Beispiel 9, 3-(4'-Nitrophenoxy)-propandiol-I,2]")
83.9
>>> readout_value("O=C(COc1cc(F)c(Cl)cc1Cl)OCCCl [Beispiel I0]")
74.3
>>> readout_value("OCC(O)COc1ccc(Cl)cc1Cl (stereo not drawn) [Beispiel 6, 3-(2',4'-Dichlorphenoxy)-propandiol-I,2]")
86.4

The reported value for OCC(O)CSc1ccccc1F (stereo not drawn) [Beispiel 7, 3-(2'-Fluorphenylthio)-propandiol-I,2] in terms of response vs control in vivo at 20000 g/ha is 90.6

The reported value for OCC(O)COc1ccc(Cl)cc1 (stereo not drawn) [Beispiel 3, 3-(4'-Chlorphenoxy)-propandiol-1,2] in terms of response vs control in vivo at 20000 g/ha is 70.6

###

Reported LD50 values for a set of compounds
test: in vivo; details: mouse, LD50, weisse Mäuse

The following compounds have reported results that may help.
>>> readout_value("O=C(O)c1ccccc1F")
"700 mg/kg"
>>> readout_value("OCC(O)COc1ccc(F)cc1 (stereo not drawn)")
"400 to 600 mg/kg"
>>> readout_value("OCC(O)CSc1cccc(Cl)c1 (stereo not drawn)")
"400 mg/kg"
>>> readout_value("O=C(COc1cc(F)c(Cl)cc1Cl)OCCCl")
"500 mg/kg"

The reported value for "O=C(COc1ccc(F)cc1)OCCCl" in terms of LD50 is 400 mg/kg

The reported value for O=[N+]([O-])c1ccc(OCC(O)CO)cc1 (stereo not drawn) in terms of LD50 is 100 to 600 mg/kg

The reported value for "OCCOc1ccc(F)cc1" in terms of LD50 is 350 mg/kg

The reported value for OCC(O)CSc1ccccc1F (stereo not drawn) in terms of LD50 is 400 mg/kg

The reported value for "Nc1ccc(C(=O)O)cc1" in terms of LD50 is 2850 mg/kg

The reported value for "O=C(O)c1ccc(O)cc1" in terms of LD50 is 3200 mg/kg

The reported value for "Nc1ccc(O)c(C(=O)O)c1" in terms of LD50 is 2400 mg/kg

The reported value for OCC(O)CSc1ccc(F)cc1 (stereo not drawn) in terms of LD50 is ~400 mg/kg

###

test system: Sommerweizen Sorte Moskovskaya 35; test: Field trial of gametocidal activity, spring wheat; format: in vivo, Weizen; settings: 1% aqueous emulsion, control = 100, read-out: Prozentsatz des Ansetzens bei freier Bestäubung
test.readout: response vs control in vivo (%)
Lab book: enter the figure in %, no units written.

The following compounds have reported results that may help.
>>> readout_value("O=C(COc1ccc(F)cc1)OCCCl [Beispiel I]")
86.5
>>> readout_value("OCC(O)CSc1ccccc1F (centres unmarked) [Beispiel 7, 3-(2'-Fluorphenylthio)-propandiol-I,2]")
89.5
>>> readout_value("OCC(O)COc1ccc(F)cc1 (centres unmarked) [Beispiel 4]")
94.2
>>> readout_value("O=C(O)c1ccccc1F [Beispiel 24, Diätha- nolaminat der o-Fluorbenzoesäure]")
98.5
>>> readout_value("OCC(O)CSc1ccc(F)cc1 (centres unmarked) [Beispiel I3]")
96

The reported value for CC(C)OC(=S)S [Beispiel 5, Kaliumisopropylxanthogenat] in terms of response vs control in vivo is 90.5

The reported value for OCC(O)CSc1cccc(Cl)c1 (centres unmarked) [Beispiel 8, 3-(3'-Chlorphenylthio)-propandiol-1,2] in terms of response vs control in vivo is 89.5

The reported value for OCC(O)COc1ccc(Cl)cc1 (centres unmarked) [Beispiel 3, 3-(4'-Chlorphenoxy)-propandiol-1,2] in terms of response vs control in vivo is 93.8

###

test system: Diploider Roggen Sorte Gibrid 340/65; test: Field trial of gametocidal activity, diploid rye Gibrid 340/65; details: Gibrid 340/65 (text: 312/65); 1% aqueous emulsion, 10 kg/ha; control = 100
test.readout: Prozentsatz des Ansetzens bei freier Bestäubung

>>> readout_value("CC(C)OC(=S)S")
"83,5%"
>>> readout_value("CCC(CO)(CO)CO")
"98,5%"
>>> readout_value("Nc1ccc(C(=O)O)cc1")
"97,8%"
>>> readout_value("O=[N+]([O-])c1ccc(OCC(O)CO)cc1 (centres unmarked)")
"84,1%"

The reported value for "O=C(COc1ccc(F)cc1)OCCCl" in terms of Prozentsatz des Ansetzens bei freier Bestäubung is 84,4%

###

tested on: Tritikale Sorte PRAG I09; assay: Field trial of gametocidal activity, triticale; type: in vivo; settings: 1% aqueous emulsion, 12 kg/ha, control = 100
Reported Prozentsatz des Ansetzens bei freier Bestäubung values for a set of compounds

>>> readout_value("OCCOc1ccc(F)cc1 [Beispiel 2]")
"90,3%"
>>> readout_value("CCC(CO)(CO)CO [Beispiel 39, Etriol]")
"98,8%"
>>> readout_value("NCCO.O=CO [Beispiel 48, Monoäthanolaminsalz der Ameisensäure]")
"92,9%"

We now examine a further compound.
The reported value for OCC(O)COc1ccc(Cl)cc1 (stereo not shown) [Beispiel 3, 3-(4'-Chlorphenoxy)-propandiol-1,2] in terms of Prozentsatz des Ansetzens bei freier Bestäubung is 89,0%

###

tested on: Diploider Roggen Sorte Chulpan; assay: Field trial of gametocidal activity, diploid rye Chulpan; format: in vivo; settings: Chulpan; single compounds, 1% aqueous emulsion, 10 kg/ha, V. or VI. period; read-out: Prozentsatz der Sterilität
Reported percent sterility at 10000 g/ha values for a set of compounds
Lab book: enter the figure in %, no units written.

Tested on Diploider Roggen Sorte Chulpan, the item OCC(O)CSc1ccccc1F (stereo not shown) showed percent sterility at 10000 g/ha equal to 98.8

Tested on Diploider Roggen Sorte Chulpan, the item "OCCOc1ccc(F)cc1" showed percent sterility at 10000 g/ha equal to 100

Tested on Diploider Roggen Sorte Chulpan, the item OCC(O)COc1ccc(Cl)cc1 (stereo not shown) showed percent sterility at 10000 g/ha equal to 100

Tested on Diploider Roggen Sorte Chulpan, the item O=[N+]([O-])c1ccc(OCC(O)CO)cc1 (stereo not shown) showed percent sterility at 10000 g/ha equal to 98.7

Tested on Diploider Roggen Sorte Chulpan, the item OCC(O)CSc1cccc(Cl)c1 (stereo not shown) showed percent sterility at 10000 g/ha equal to 100

Tested on Diploider Roggen Sorte Chulpan, the item "CCC(CO)(CO)CBr" showed percent sterility at 10000 g/ha equal to 91.8

Tested on Diploider Roggen Sorte Chulpan, the item "Nc1ccc(O)c(C(=O)O)c1" showed percent sterility at 10000 g/ha equal to 96

###

test system: Diploider Roggen Sorte Gibrid 340/65; assay: Field trial of gametocidal activity, diploid rye Gibrid 340/65; conditions: Gibrid 340/65 (text: 312/65); 1% aqueous emulsion, 10 kg/ha, V. and VI. periods
Reported Anzahl von Körnern der Ähre bei freier Bestäubung values for a set of compounds

The following compounds have reported results that may help.
>>> readout_value("Nc1ccc(C(=O)O)cc1")
"52,8"
>>> readout_value("O=[N+]([O-])c1ccc(OCC(O)CO)cc1 (stereo not drawn)")
"45,0"

We now examine a further compound.
The reported value for "CC(C)OC(=S)S" in terms of Anzahl von Körnern der Ähre bei freier Bestäubung is 44,8
